# measured target: CXCR3 (Homo sapiens)
# Sequence (P49682 1-368): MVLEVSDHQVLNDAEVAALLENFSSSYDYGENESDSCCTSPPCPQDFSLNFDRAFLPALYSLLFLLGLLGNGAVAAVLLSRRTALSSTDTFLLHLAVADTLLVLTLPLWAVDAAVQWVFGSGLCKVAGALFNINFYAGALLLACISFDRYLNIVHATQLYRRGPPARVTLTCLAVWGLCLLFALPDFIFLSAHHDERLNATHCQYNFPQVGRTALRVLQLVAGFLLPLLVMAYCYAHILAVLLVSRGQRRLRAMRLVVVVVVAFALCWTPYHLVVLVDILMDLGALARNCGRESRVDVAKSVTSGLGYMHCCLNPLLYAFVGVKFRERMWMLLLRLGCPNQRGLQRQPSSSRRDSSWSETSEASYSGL
# protocol text: CXCR3 Ca2+ mobilization (FLIPR), stable hCXCR3-CHO cell line, I-TAC stimulated
# Assay type: cell-based
# Set-up: host or cells: CHO cells stably expressing hCXCR3
# experimental context: hCXCR3-CHO cells, I-TAC 100 nM stimulated Ca2+ response; read-out: Ca-ITAC
measured parameter: IC50 (µM)

## Task Quickly give me recorded IC50 for O=S(=O)(c1ccccc1Oc1ccccc1)N(Cc1ccc(-c2nnn[nH]2)cc1)Cc1ccccn1
## Result 25

## Task Check the records and state IC50 for COC(=O)[C@@H](NC(=O)c1ccc(CN(Cc2ccccn2)S(=O)(=O)c2ccc(Cl)cc2)cc1)c1ccccc1
## Result 0.8

## Task Note down IC50 recorded for O=S(=O)(c1ccc(Cl)cc1)N(Cc1ccccc1)Cc1ccccc1-c1nnn[nH]1
## Result 1.6

## Task Indicate its recorded IC50; the molecule in question is Cc1nc(CN(Cc2ccc(-c3nnn[nH]3)cc2)S(=O)(=O)c2ccc(Cl)cc2)cs1
## Result 2

## Task Give me measured IC50, please, for this molecule: N#Cc1ccc(S(=O)(=O)N(Cc2ccc([N+](=O)[O-])cc2)Cc2ccccn2)cc1
## Result 1

(a) CCOc1ccc(S(=O)(=O)N(Cc2ccc(C(=O)NC3(c4cccc(C#N)c4)CC3)cc2)Cc2ccccn2)cc1
(b) CCOc1ccc(S(=O)(=O)N(Cc2ccc(C(=O)NC3(c4ccc(Cl)cc4)CC3)cc2)Cc2ccccn2)cc1
## Task I'm curious whether a or b has the smaller IC50 number. Which is it? Indicate your choice by writing its label.
## Result b
(b: 0.5 µM, a: 4 µM)

====

# measured target: CXCR3 (Homo sapiens, UniProt P49682)
# protocol text: CXCR3 Ca2+ mobilization (FLIPR), stable hCXCR3-CHO cell line, I-TAC stimulated
# Assay type: cell-based
# Design: host or cells: CHO cells stably expressing hCXCR3
# experimental context: hCXCR3-CHO cells, I-TAC 100 nM stimulated Ca2+ response; read-out: Ca-ITAC
pIC50: −log10 of the molar value.
measured parameter: pIC50

## Task Return pIC50 (reported value) for this molecule: O=C(NC1(c2ccccc2)CC1)c1ccc(CN(Cc2ccccn2)S(=O)(=O)c2ccc(Cl)cc2)cc1
## Result 7.05

(I) O=S(=O)(c1ccc(Cl)cc1)N(Cc1ccccc1)Cc1ccc(-c2nnn[nH]2)cc1
(II) O=S(=O)(c1ccc(Cl)cc1)N(Cc1ccc(-c2nnn[nH]2)cc1)Cc1cccnc1
## Task Could you determine which record has the numerically smaller pIC50? Candidates: I and II Field: selected label. Fill in the label of the entry you choose.
## Result II
(II: 4.80, I: 5.52)

====

# measured target: UniProt:P49682
# protocol text: CXCR3 Ca2+ mobilization (FLIPR), stable hCXCR3-CHO cell line, I-TAC stimulated
# Format: cell-based
# Design: host or cells: CHO cells stably expressing hCXCR3
# experimental context: hCXCR3-CHO cells, I-TAC 100 nM stimulated Ca2+ response; read-out: Ca-ITAC
measured parameter: IC50 (µM)

## Task Give reported IC50 value for CCOc1ccc(S(=O)(=O)N(Cc2ccc(C(=O)N[C@H]3[C@@H]4CN(C(=O)c5ccc(OC(F)(F)F)cc5)C[C@@H]43)cc2)Cc2ccccn2)cc1
## Result 0.8

## Task Specify reported IC50 for the molecule shown: CC(C)(C)OC(=O)N[C@@H](C(=O)Nc1ccc(CN(Cc2ccccn2)S(=O)(=O)c2ccc(Cl)cc2)cc1)c1ccccc1
## Result 1

## Task For the molecule CCOc1ccc(S(=O)(=O)N(Cc2ccccc2)Cc2ccc(C(=O)NCc3ccccc3)cc2)cc1 , report IC50.
## Result 0.53

## Task Quickly give me recorded IC50 for CCOc1ccc(C2(NC(=O)c3ccc(CN(Cc4ccccn4)S(=O)(=O)c4ccc(OCC)cc4)cc3)CC2)cc1
## Result 3

## Task Return IC50 for the following molecule: COc1cccc(CN(Cc2ccc(C(=O)NCc3ccccc3)cc2)S(=O)(=O)c2ccc(Cl)cc2)c1
## Result 10

(A) N#Cc1ccc(S(=O)(=O)N(Cc2ccc(-c3nnn[nH]3)cc2)Cc2ccccc2F)cc1
(B) O=C(O)c1ccc(CN(Cc2ccccc2F)S(=O)(=O)c2ccc(Cl)cc2)cc1F
## Task Could you tell me which of A and B has the lower IC50 reading? Reply briefly: the label of your chosen item.
## Result A
(A: 0.01 µM, B: 1.01 µM)

====

# measured target: CXCR3 (Homo sapiens, UniProt P49682)
# Sequence (P49682 1-368): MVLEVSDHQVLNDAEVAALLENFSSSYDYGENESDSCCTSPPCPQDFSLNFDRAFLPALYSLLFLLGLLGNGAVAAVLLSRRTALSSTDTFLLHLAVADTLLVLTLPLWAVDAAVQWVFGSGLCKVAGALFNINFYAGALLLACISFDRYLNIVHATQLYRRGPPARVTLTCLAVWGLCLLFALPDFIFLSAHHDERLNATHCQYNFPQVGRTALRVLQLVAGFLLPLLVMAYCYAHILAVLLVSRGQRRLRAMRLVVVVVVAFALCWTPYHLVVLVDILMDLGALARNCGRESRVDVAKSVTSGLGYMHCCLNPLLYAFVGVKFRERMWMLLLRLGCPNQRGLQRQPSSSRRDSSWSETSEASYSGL
# protocol text: CXCR3 Ca2+ mobilization (FLIPR), stable hCXCR3-CHO cell line, I-TAC stimulated
# Assay type: cell-based
# Set-up: host or cells: CHO cells stably expressing hCXCR3
# experimental context: hCXCR3-CHO cells, I-TAC 100 nM stimulated Ca2+ response; read-out: Ca-ITAC
measured parameter: IC50 (µM)

Here are 2 molecules together with their reported answers.
## Task Jot down IC50 (CXCR3 (Homo sapiens, UniProt P49682)) of N#Cc1ccc(S(=O)(=O)N(Cc2ccc(C(=O)NC3(c4ccc(OC(F)(F)F)cc4)CC3)cc2)Cc2ccccn2)cc1 [Example 282] .
## Result 5.5

## Task Return reported IC50 for target or system CXCR3 (Homo sapiens, UniProt P49682), item CCOc1ccc(S(=O)(=O)N(Cc2ccc(C(=O)NC3(c4ccccc4)CC3)c(OC)c2)Cc2ccccn2)cc1 [Example 189] .
## Result 2

(I) O=S(=O)(c1ccc(Cl)cc1)N(Cc1ccc(-c2nnn[nH]2)cc1)Cc1ccc2ccccc2n1 [Example 75]
(II) N#Cc1ccc(S(=O)(=O)N(Cc2ccc(C(=O)NC3(c4ccccc4)CC3)cc2)Cc2ccccn2)cc1 [Example 44]
## Task Lab log: flag the item ( I or II ) with the smaller IC50 figure. Please reply using the label of the selected record.
## Result II
(II: 0.268 µM, I: 2 µM)

====

# measured target: CXCR3 (Homo sapiens, UniProt P49682)
# protocol text: Chemotaxis assay ITAC (CXCL11), L1.2-CXCR3 cells
# Assay type: cell-based
# Parameters: expressed in transfected cells
# experimental context: 1 nM CXCL11 (I-TAC), 4 hours
pIC50: −log10 of the molar value.
measured parameter: pIC50

## Task With CXCR3 (Homo sapiens, UniProt P49682) as the test system, provide measured pIC50 for this compound: O=C(Nc1ccc(CN(Cc2ccccn2)S(=O)(=O)c2ccc(Cl)cc2)cc1)C(O)c1ccccc1 (centres unmarked)
## Result 7.30

## Task Report pIC50 from CXCR3 (Homo sapiens, UniProt P49682) testing of COC(=O)c1ccc(S(=O)(=O)N(Cc2ccc(C(=O)NC3(c4ccccc4)CC3)cc2)Cc2ccccn2)cc1
## Result 8.00

## Task Report pIC50 from CXCR3 (Homo sapiens, UniProt P49682) testing of O=C(NCC1CC1)c1ccc(CN(Cc2cccc[n+]2[O-])S(=O)(=O)c2ccc(Cl)cc2)cc1
## Result 5.53

(1) CC(=O)OC(C(=O)Nc1ccc(CN(Cc2ccccn2)S(=O)(=O)c2ccc(Cl)cc2)cc1)c1ccccc1 (centres unmarked)
(2) CC(=O)N1C[C@@H]2[C@H](C1)[C@H]2NC(=O)c1ccc(CN(Cc2ccccn2)S(=O)(=O)c2ccc(C#N)cc2)cc1
## Task Which entry has a larger number for pIC50, 1 or 2 ? # reply format: chosen label
## Result 1
(1: 8.00, 2: 5.67)
